target: BSA (Bos taurus, UniProt P02769); test: BSA UV-vis absorption titration (Benesi-Hildebrand binding constant); set-up: species or system bovine
endpoint-name: pKd
Give bare numbers, as −log10 of the molar value.

// query Supply measured pKd of c1ccc(CNCc2ccccn2)nc1 [BPA, bis(2-picolyl)amine] in your reply.
// result 3.60

###

molecular target: UniProt:P02769; assay: Stopped-flow kinetics of BSA binding; design: species or system bovine; conditions: BSA, overall; read-out: Kd (overall reaction)
endpoint-name: pKd
Give bare numbers, as −log10 of the molar value.

// query Supply measured pKd of O.[Cl][Ni][Cl].c1ccc(CNCc2ccccn2)nc1 [NiBPA, [(BPA)NiCl2(H2O)]] in your reply.
// result 1.49

###

target: BSA (Bos taurus, UniProt P02769); assay: Stopped-flow kinetics of BSA binding; design: species or system bovine; settings: BSA, 1st step, 25 °C; read-out: Kd1 (k−1/k1)
endpoint-name: Kd (mM)
Answers are plain numbers, in mM.

// query Supply measured Kd of c1ccc(CNCc2ccccn2)nc1 [BPA, bis(2-picolyl)amine] in your reply.
// result 13.6

###

molecular target: BSA (Bos taurus); assay: Stopped-flow kinetics of BSA binding; design: species or system bovine; settings: BSA, overall; read-out: Kd (overall binding)
endpoint-name: Kd (mM)
Give bare numbers, in mM.

// query Supply measured Kd of O.[Cl][Ni][Cl].c1ccc(CNCc2ccccn2)nc1 [NiBPA, [(BPA)NiCl2(H2O)]] in your reply.
// result 34

Hey, just so you know, these numbers are from paper PMC9680484.
